Biological target: T1, IFF05588
T1 chain: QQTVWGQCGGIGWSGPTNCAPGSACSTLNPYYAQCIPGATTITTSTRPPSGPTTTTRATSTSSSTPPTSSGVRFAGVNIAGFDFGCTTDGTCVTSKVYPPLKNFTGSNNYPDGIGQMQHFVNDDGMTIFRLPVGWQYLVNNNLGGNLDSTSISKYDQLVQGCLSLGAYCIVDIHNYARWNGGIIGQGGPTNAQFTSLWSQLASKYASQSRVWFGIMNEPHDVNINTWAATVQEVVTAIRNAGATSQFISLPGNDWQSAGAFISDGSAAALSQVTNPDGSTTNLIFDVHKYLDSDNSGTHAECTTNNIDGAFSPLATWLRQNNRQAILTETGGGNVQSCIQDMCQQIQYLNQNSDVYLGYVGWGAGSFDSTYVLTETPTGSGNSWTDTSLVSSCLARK
MEASUREMENT_NAME: Relative late peak area (centered, scaled, averaged over 5, 10 and 15 min)
No unit in the answer, please; the number alone is enough.

Examples with their reported Relative late peak area (centered, scaled, averaged over 5, 10 and 15 min) follow.
- PROTEIN: "IFF21340 (protein) NLNKPVITPNFPGNGLASLGPGLMNNLAPTHSTWDDWGAGWIPADCKSMVQGAGFSPNDIIPFNIHYDDCAQSWTFCRHKNSPLSEIQILDIFGRLPVRMRQFVRHLVFVPGNKSAGSNGDNVLMVGDVDVTVFAHEIGHSLDSHAFDPSYGVPFSTGNVWVSNYNLDSAVPDPYAQSSQQENFAQQTVVSIYDKVVPGGIGTIQPNWQAIFHQYATLEGYIGNVIIPGGTCTHRLTDSAPVTMSGSKKSRRALGPKPKVSLSPKVKEIEAIPMESSITMTSFDEHGKPNGTYVVHL"
  REPORTED_VALUE: -0.31
- PROTEIN: "IFF21351 (protein) ALNKPVIQPNFPGNGLASLGQGIMQHLTPTQSTWDDWGAGWIPQDCKSIVQGAGFSPNDIIPFNIHYTDCGQTWTFCRHKNSPLSEINIIDIFGRLPVRMRQFVRHLVFVPGNKSAGSNGDNILMVGPVDVTVFIHEIGHSLDSHAFDPSYGVPFSTGNVWVSNYNLDSAVPDPYAQSSQQENFAQHTVVSIFDKVVPGGIGTIQPNWQAIFHQYATLEGYIGDTIIPGGTCTHRLTDSPPVTMASKRRGLGPKPKVALSPEVEEIESIPMKSTFKMTSFDEAGKPSGNYVINL"
  REPORTED_VALUE: -0.57
- PROTEIN: "IFF21371 (protein) QLDKPLVVPAMPALDAGLLKHLAAPAYTTSQWEWGWIPQWCKDEAVSEKLSPYDIEVFNIHYNDCKDVWIFCRHNAAQASQKDMIDIFGRMPVRTRQFVRHILAVPGTISAGSSGDNIALRGTGPNLISVLIHEAAHSMDSHAVDSLSKPFHNTAEWLAAYKADSAISDDYAQTSQSENFAQTVVIAVFDKVVPGGIGSVQPSWAAIKNQYTTAQKWLGDLIIPGGTCTARLENSPVASMGRASGNGARMRRRARGGKPDVSLSKDTKVIPAIAGKKIHITSFAQ"
  REPORTED_VALUE: -0.95

[ask] I have this protein here, IFF21331 (protein) ALDKPIIDPEFPGGGLASLGQGLLDNLAPTQSTYADWEAGFIPQDCKTIAEGNSLSPLDIIPFNITYTDCSDPWIFCRHKDSPLSEVDMIDLFGRMPVGMRSFIRHIISIPGDKSAGSNGDNVQMNGDVDITVFIHETGHSLDSHGFDASYGVPFSTGQVWTDNYNLDSAVTDSYAQSSQQENFAQETVVALYDKVVPGGVGTIQPNWQAIQHQYETIQGYAGGIIIPGGTCTNRLPNSPAVPMSDSAKYRVNMAHKPDVSLSNYVTEIKSIPMEPIMKLTHYDAAGRPIGKSTIDLST , and I need its recorded Relative late peak area (centered, scaled, averaged over 5, 10 and 15 min).
[reply] -0.86

Cited source for all entries: patent US20250051821
